# Test system: HOP-18
# EXPERIMENTAL PROTOCOL: NCI tumour cell line growth inhibition, 48 h
The source made the active and inactive calls. Cut-off read from the data, not from the text of the source: active = GI50 up to about 1.1 µM and inactive = higher.
Please go through the items and note down their GI50.

Incoming: What value of GI50 has been recorded for this entry: `Cc1ccc(N(C(=O)CC(=O)NN)C(=O)c2ccccc2Cl)cc1`
Outgoing: > 100 µM (inactive)

Incoming: I am curious: what GI50 value has been reported for CN1CCc2cc3c4cc2C1Cc1ccc(cc1)Oc1cc(ccc1O)CC1c2c(cc(O)c(c2O4)O3)CCN1C (stereo not given) ?
Outgoing: 3.52 µM (inactive)

Incoming: Returns the measured GI50 for the input compound. Input: `O=C(N/C(=C\c1cccc([N+](=O)[O-])c1)c1nc2c(O)nc(S)nc2[nH]1)c1ccccc1`
Outgoing: > 100 µM (inactive)

Incoming: Fill in: GI50 of `COc1cc2c[n+](C)c3c4cc(OC)c(OC(C)C)cc4ccc3c2cc1OC` is ___
Outgoing: 49.7 µM (inactive)

Incoming: Record request: GI50 value, item `COc1ccccc1NC(=O)C1=C(C)NC(C)=C(C(=O)Nc2ccccc2OC)C1C1=CC=COC1`
Outgoing: 28.5 µM (inactive)

* * *

# Test system: EKVX
# EXPERIMENTAL PROTOCOL: NCI tumour cell line growth inhibition, 48 h
Calls of active or inactive are those of the source. Rule as the data show it: active = GI50 up to about 1.1 µM and inactive = higher.
Exercise: state measured GI50 for each of the compounds provided.

Incoming: Fill in the blank: the reported GI50 of `CC1(C)CO[P@@](=S)(c2ccccn2)O[C@@H]1c1ccccc1` is ____.
Outgoing: 96.8 µM (inactive)

Incoming: Quick check: GI50 of `COc1ccc2c(c1O)[C@@]13C=C(O)C(=O)C=C1[C@@H](C2)N(C)CC3` ?
Outgoing: > 100 µM (inactive)

Incoming: Name the recorded GI50 for `O=[N+]([O-])c1ccc(Cl)cc1-n1nc(-c2ccccc2)cc1-c1ccccc1` .
Outgoing: > 100 µM (inactive)

Incoming: Any idea what GI50 was measured for `COc1cc(C)c(/C=C2/N=C(c3ccccc3)OC2=O)c([N+](=O)[O-])c1OC` ?
Outgoing: > 100 µM (inactive)

Incoming: Which value of GI50 has been reported for `CC(C)(C)OC(=O)c1cnc(Cl)cn1` in the records?
Outgoing: 24.2 µM (inactive)

Incoming: # GI50 lookup, item `Cc1c2cccc-2c(OCCO)cc2c3ccccc3n(C)c12`
Outgoing: 2.63 µM (inactive)

Incoming: Item `O=C(O)c1ccccc1C(=O)c1ccc2c(c1)Cc1ccccc1-2` has what recorded GI50?
Outgoing: 68.5 µM (inactive)

Incoming: For the compound `Cc1cc2[nH]c3c(C#N)c(-c4ccccc4)c(/N=N/c4ccc(F)cc4)c(=O)n3c2cc1C` , what GI50 is on record?
Outgoing: > 100 µM (inactive)

Incoming: Fill in the blank: the reported GI50 of `N#CCCN(CCCN(C(=O)Nc1ccc(NC(=O)N(CCCN(CCC#N)C(N)=O)c2ccccc2)cc1)c1ccccc1)C(N)=O` is ____.
Outgoing: > 100 µM (inactive)

Incoming: Endpoint output: GI50 of `CCCCNC(=O)C1=C(C)NC(C)=C(C(=O)NCCCC)C1` . Value?
Outgoing: 58.7 µM (inactive)

Incoming: Which GI50 value is on record for `O=C1COc2ccc([N+](=O)[O-])cc2C(=O)C1` ?
Outgoing: > 10 µM (inactive)

* * *

# Tested on: SR
# EXPERIMENTAL PROTOCOL: NCI tumour cell line growth inhibition, 48 h
The source made the active and inactive calls. No stated cut-off is given here; in the data, active = GI50 up to about 1.1 µM and inactive = higher. Non-standard residues stand in square brackets, D forms with d. Residues, ends and D or L forms follow the SMILES beside them. ξ: configuration not given here. *: point of attachment. X18 = COC1=CC(=O)N(C(=O)C(O*)C(C)C)C1Cc1ccccc1; ξNMe2Val = CC(C)C(C(=O)*)N(C)C; NMeV = CN[CH](C(=O)O)C(C)C
Write down one outcome, taken from true for active, false for inactive

Incoming: Per the assay record, what outcome was assigned to `Nc1ccc([As](=O)(O)O)cc1` ?
Outgoing: false

Incoming: Per the records of this test, what outcome belongs to `O=C(N/C(=C\c1cccc([N+](=O)[O-])c1)c1nc2c(O)nc(S)nc2[nH]1)c1ccccc1` ?
Outgoing: false

Incoming: Per the records of this test, what outcome belongs to `CCCCn1c(CSc2ccc(Cl)cc2)c(C(=O)OCC)c2cc(OC)c(Br)cc21` ?
Outgoing: false

Incoming: Please share the test call associated with `O=S(=O)(O)c1ccc(-c2c3nc(c(-c4ccc(S(=O)(=O)O)cc4)c4ccc([nH]4)c(-c4ccc(S(=O)(=O)O)cc4)c4nc(c(-c5ccc(S(=O)(=O)O)cc5)c5ccc2[nH]5)C=C4)C=C3)cc1` .
Outgoing: false

Incoming: # lookup: test call for COC1=CC(=O)N(C(=O)C(OC(=O)C2CCCN2C(=O)C2CCCN2C(=O)C(C(C)C)N(C)C(=O)C(NC(=O)C(C(C)C)N(C)C)C(C)C)C(C)C)C1Cc1ccccc1 (centres undefined) (ξNMe2Val-V[NMeV]PP-X18; configuration not given here)
Outgoing: true

Incoming: # outcome recorded in this test, key = `CN(CCCN(C)Cc1ccc(Cl)c(Cl)c1)CCN1CCCC1`
Outgoing: false

Incoming: Tell me the assay call for CC(=O)OCc1ccc2c(c1)C(O)NC(=O)O2 (centres undefined) please.
Outgoing: false

Incoming: Please indicate how the test categorized `COc1cc(/C=C/C(=O)N[C@@H]2C(=O)N3[C@@H]2SC(C)(C)[C@@H]3C(=O)O)ccc1O` .
Outgoing: false

Incoming: Can you look up the reported call for `OCCCCCNc1nc(O)c2[nH]cnc2n1` for me?
Outgoing: false

Incoming: Test call, this compound: `COc1ccccc1N1CCN(CCCNC(=O)c2cc(Cl)c(N)c(Cl)c2)CC1`
Outgoing: false

Incoming: # outcome recorded in this test, key = `Cc1ccccc1NC(=O)C(=O)CC(=O)c1sc(-n2nc(-c3ccccc3)cc2-c2ccccc2)nc1C`
Outgoing: false

Incoming: What did this assay record as the result for Fc1cccc(Cl)c1C1SCc2nc3cc4ccccc4cc3n21 (centres undefined) ?
Outgoing: false

Incoming: Assay outcome for `COc1ccc(CCNC(=O)c2ccccc2C2c3ccc(OCc4ccccc4)cc3Oc3cc(OCc4ccccc4)ccc32)cc1OC` : what was it?
Outgoing: false

Incoming: Check the results log: what was the call for `c1ccc(CNCCCNCCCCNCCCNCc2ccccc2)cc1` ?
Outgoing: false

Incoming: Please indicate how the test categorized C=C(C)C(=O)N1c2ccc(OC)cc2CC1C(=O)OCC (centres undefined) .
Outgoing: false

Incoming: I would be grateful if you could indicate the recorded call for Oc1ccccc1C(c1cc2c(cc1O)OCO2)N1CCOCC1 (centres undefined) .
Outgoing: false

Incoming: How was COc1ccc(N2C(=O)CS(=O)(=O)C2c2cccc(Oc3ccccc3)c2)cc1 (centres undefined) classified in this test?
Outgoing: false

Incoming: Outcome logged for `CCC(CCN)(CCN)[N+](=O)[O-]` in this assay:
Outgoing: false

Incoming: Lab log entry: `CCOC(=O)c1c(-c2ccc(OC)cc2)ccn1C` — outcome as called in the assay?
Outgoing: false

Incoming: Could you check what this test reported for COC(=O)C(Cc1nc2ccc(Cl)cc2nc1O)C(=O)C(=O)Nc1ccccc1[N+](=O)[O-] (centres undefined) ?
Outgoing: false

Incoming: // param item: `O=C1/C(=C\c2ccco2)Oc2ccccc21` ; yields the recorded call
Outgoing: false

Incoming: What was the test verdict on `COc1ccc(C)cc1NC(=S)N/N=C/c1ccc(SC)cc1` ?
Outgoing: false

Incoming: What call does the record list for [O-][S+]1CC[S+]([O-])CC[S+]([O-])CC1 (centres undefined) ?
Outgoing: false

Incoming: Record request — test call for `COc1ccc2c(c1)[C@@H]1c3cc(OC)c(OC)cc3CCN1CCC2`
Outgoing: false

Incoming: What is the recorded call for this compound in the test? `Cc1ccc(C(=O)Oc2ccccc2)cc1/N=N/N(C)C`
Outgoing: false

Incoming: How was COC1CC(O)C(OC(=O)c2ccccc2)C(C)O1 (centres undefined) classified in this test?
Outgoing: false

Incoming: What did this assay record as the result for `CC1(C)CO[P@@](=S)(c2ccccn2)O[C@@H]1c1ccccc1` ?
Outgoing: false

Incoming: # outcome recorded in this test, key = CCOC(=O)C1([Se]c2ccccc2)CCCC1=O (centres undefined)
Outgoing: false

Incoming: Per the records of this test, what outcome belongs to `O=c1cc(-c2ccccc2)oc2cc(Oc3nnnn3-c3ccccc3)ccc12` ?
Outgoing: false

* * *

I'd be grateful if you could share measured GI50 for these entries.
# Test system: T47D
# EXPERIMENTAL PROTOCOL: NCI tumour cell line growth inhibition, 48 h
Active and inactive are the calls of the source. Cut-off read from the data, not from the text of the source: active = GI50 up to about 1.1 µM and inactive = higher.

Incoming: I'd like to know its GI50. The compound in question is `C/C(=N\NC(=S)N1CCC1)c1ccccn1`
Outgoing: 0.00137 µM (active)

Incoming: Look at this compound and give its reported GI50. CC1(CCCO)CCCCCCCCCC(C)(CCCO)C1=O (configuration not stated)
Outgoing: > 100 µM (inactive)

Incoming: Look up GI50: `CCN1C2=NCCN2S(=O)(=O)c2ccccc21`
Outgoing: > 100 µM (inactive)

Incoming: Suppose we examine the compound COc1cc(C2C(Cl)C(=O)N2NC(=O)c2ccc(NC(C)=O)cc2OC)ccc1O (configuration not stated) ; what GI50 value has been reported?
Outgoing: 20.9 µM (inactive)

Incoming: If you can, please state the reported GI50 value of O=C1CC(c2n[nH]c3ccccc23)C(=O)N1c1ccccc1 (configuration not stated) .
Outgoing: > 100 µM (inactive)

Incoming: Fill in: GI50 of O=C(O)C1C(C(=O)O)C23CC2(C(=O)O)C2(C(=O)O)CCC3=C3CCCC312 (configuration not stated) is ___
Outgoing: 11.8 µM (inactive)

Incoming: Please give the measured GI50 for this compound: Cc1ccc(S(=O)(=O)NC(=O)NC(Cc2ccc(O)cc2)C(=O)O)cc1 (configuration not stated)
Outgoing: > 100 µM (inactive)

Incoming: Which GI50 value belongs to `CN/C(=N\CCSCc1nc[nH]c1C)NC#N` ?
Outgoing: > 100 µM (inactive)

Incoming: Return reported GI50; argument: COC(=O)C1=COC(C)C2C[n+]3ccc4c([nH]c5ccccc54)c3CC12 (configuration not stated)
Outgoing: 36.6 µM (inactive)

Incoming: Item under review: `O=c1c(C(c2cc(OCc3ccccc3)cc(OCc3ccccc3)c2)c2c(O)oc3ccccc3c2=O)c(O)oc2ccccc12` . Reported GI50?
Outgoing: 8.55 µM (inactive)

Incoming: Which GI50 value belongs to `O=c1c2ccccc2n2nnc3ccc(NCCCNCCNCCCNc4ccc5nnn6c7ccccc7c(=O)c4c56)c1c32` ?
Outgoing: > 37.4 µM (inactive)

Incoming: What value of GI50 has been recorded for this entry: `COc1ccc(C)cc1NC(=S)N/N=C/c1ccc(SC)cc1`
Outgoing: 60.7 µM (inactive)

Incoming: Which GI50 value is on record for `Cc1ccc(S(=O)(=O)/N=C2/N(C)CCCS2(=O)=O)cc1` ?
Outgoing: > 100 µM (inactive)

Incoming: Form field: reported GI50 of COc1ccc(N2C(=O)CS(=O)(=O)C2c2cccc(Oc3ccccc3)c2)cc1 (configuration not stated)
Outgoing: 7.45 µM (inactive)

Incoming: GI50 for `CC(=O)N[C@@H](Cc1ccc(O)cn1)C(=O)NCc1ccc(Cl)cc1` ?
Outgoing: 94 µM (inactive)

Incoming: Name the recorded GI50 for `O=c1c(C(c2ccc(-c3ccccc3)cc2)c2c(O)oc3ccccc3c2=O)c(O)oc2ccccc12` .
Outgoing: 40 µM (inactive)

Incoming: Fill in: GI50 of `CCC/C(Cl)=N\OC(=O)Nc1cccc(C(F)(F)F)c1` is ___
Outgoing: 23.9 µM (inactive)

Incoming: Given `N#CC(=C1CCN(CCCC(=O)c2ccc(F)cc2)CC1)c1ccccc1` , state its recorded GI50.
Outgoing: > 100 µM (inactive)

Incoming: Dear colleague, I am looking for the recorded GI50 of the following compound: `Cc1cc(Cl)ccc1/N=N/C(=O)NNc1ccc(Cl)cc1C`
Outgoing: 5.87 µM (inactive)

Incoming: Entry `COC(=O)c1c(O)ccc2c1c1c(n2CCc2ccc(OC)c(OC)c2)C(=O)c2ccccc2C1=O` has what GI50?
Outgoing: 12 µM (inactive)

Incoming: // returns reported GI50 for input Cc1ccc(S(=O)(=O)NC2C(=O)c3ccccc3C(=O)C2n2cnc3ccccc32)cc1 (configuration not stated)
Outgoing: 25.2 µM (inactive)

Incoming: What does the data say about its GI50? Entry: Clc1ccc2c(SCC3CO3)c3ccccc3nc2c1 (configuration not stated)
Outgoing: 1.66 µM (inactive)

The values you see were collected from ChEMBL document CHEMBL1201862.
